Recorded GI50 for the following compounds
# Test system: KM12
# ASSAY COMMENT: NCI tumour cell line growth inhibition, 48 h
The source made the active and inactive calls. Rule as the data show it: active = GI50 up to about 1.1 µM and inactive = higher.
ENDPOINT: GI50

INSERT INTO measurements (compound, reported_value) VALUES
  ('COc1ccc(C2C3CCCC(C3=O)C(c3ccc(OC)cc3)N2N=O)cc1 (stereo not given)', '29.6 µM (inactive)'),
  ('CC1=NOC(=O)/C1=C/c1ccc2c(c1)OCO2', '19.1 µM (inactive)'),
  ('O=C1/C(=N/c2ccc(Nc3ccccc3)cc2)Oc2ccccc21', '2.14 µM (inactive)'),
  ('CC1C2=CC=C(O2)C(C)(C)C2=CC=C(O2)C(C)(C)C2=CC=C(O2)C(C)(C)C2=CC=C1O2', '> 100 µM (inactive)'),
  ('O=C(CN1CCCC1)Nc1ccc2c(c1)C1Oc3ccccc3CC1CO2 (stereo not given)', '43.4 µM (inactive)'),
  ('O=C(Sc1c(-c2ccccc2)c(=O)n(-c2ccccc2)c(=S)n1-c1ccccc1)c1ccco1', '> 100 µM (inactive)'),
  ('O=C(CC(c1ccccc1)c1c(O)c2ccccc2oc1=O)c1ccccc1 (stereo not given)', '> 100 µM (inactive)'),
  ('O=C(NCCCCCCNC(=O)c1cccc2ccccc12)Nc1cccc2ccccc12', '> 100 µM (inactive)'),
  ('CCN1CCCCCCCCCC(=N/O)/C(=N\O)C1', '> 100 µM (inactive)'),
  ('COC(=O)CCC12CCC(O1)c1ccccc12 (stereo not given)', '> 100 µM (inactive)'),
  ('C/C(=N/Nc1nc(C)cc(O)n1)C(=O)O', '> 100 µM (inactive)'),
  ('FC1=C2CCCCCC2SC1(F)F (stereo not given)', '> 100 µM (inactive)'),
  ('c1ccc([P+](c2ccccc2)(c2ccccc2)C2Sc3ccccc3S2)cc1', '21.9 µM (inactive)'),
  ('O=C1Nc2ccccc2/C1=N/Nc1ccc([N+](=O)[O-])cc1', '20.2 µM (inactive)'),
  ('CCN(CC)Cc1sc2nc3ccccc3n2c1-c1ccc(OC)cc1', '20.6 µM (inactive)'),
  ('C#CCOC(=O)[C@@H](C)c1ccc2cc(OC)ccc2c1', '> 100 µM (inactive)'),
  ('COc1ccc2oc3c4c2c1CCC4CCC3=O (stereo not given)', '> 100 µM (inactive)'),
  ('CC1=NN(c2ccccc2)C(=O)C1=C1SCCS1', '> 88.9 µM (inactive)'),
  ('CC1=NN(C(=O)Cc2ccccc2)C(=O)/C1=C\c1ccco1', '> 100 µM (inactive)'),
  ('C=O.NNCCc1n[nH]c(=O)n1N', '> 100 µM (inactive)'),
  ('O=C(Nc1nc2ncn(CCOC(=O)c3ccccc3)c2c(=S)[nH]1)c1ccccc1', '> 100 µM (inactive)'),
  ('Nc1nc(N)c(/N=N/c2ccc(C(=O)O)c(O)c2)c(N)n1', '> 100 µM (inactive)'),
  ('O=C(O)c1ccc(C(c2c(O)oc3ccccc3c2=O)c2c(O)oc3ccccc3c2=O)cc1', '> 100 µM (inactive)'),
  ('OC1=C(c2ccccc2)C2=NCCN2c2ccccc21', '31.8 µM (inactive)'),
  ('COc1ccc(/C=C2\N=C(N3CCCCC3)NC2=O)cc1', '52.1 µM (inactive)'),
  ('N#CN1CCC2CC(=O)CCC2C1 (stereo not given)', '> 100 µM (inactive)'),
  ('CC1(C)OCC(C2OC3OC(C)(C)OC3C2c2ccccc2)O1 (stereo not given)', '82.4 µM (inactive)'),
  ('O=C1/C(=C/c2ccc(Cl)cc2)N=C(c2ccccc2)N1/N=C/c1ccccc1O', '12.9 µM (inactive)'),
  ('Cc1ccc(S(=O)(=O)C2=c3ncccc3=C3C(=O)c4ccccc4C(=O)C32)cc1 (stereo not given)', '> 9.95 µM (inactive)'),
  ('CC(=O)/C(=C/N1CCNC1=S)C(=O)Nc1ccccc1C', '> 100 µM (inactive)');
